Recorded values, source patent US6645983B1.

For each entry below, report its viability at 10 µM value.
System: T24
Experiment: MTT test, cytotoxic activity on non-clonogenic cell lines
Type: cell-based
Settings: Homo sapiens, T-24; T24; 10^−5 M; 72 hours incubation; MTT; mean value; read-out: mean optical density, expressed as percentage relative to the mean optical density under the control condition (100%)
Description: The principle of the MTT test is based on the mitochondrial reduction, by the metabolically active live cells, of the yellow-colored product MTT (3-(4,5-dimethylthiazol-2-yl)-2,5-diphenyltetrazolium bromide) to a blue-colored product, formazan. The amount of formazan thus obtained is directly proportional to the amount of live cells present in the culture well(s). This amount of formazan is measured by spectrophotometry. […]
One number for each entry, in %.

{"columns": ["Entry smiles", "viability at 10 µM, %"],
 "data": [
  ["COc1ccc(-c2cn(C)c3cc(OC)cc(N)c3c2=O)cc1", 107],
  ["COc1ccc(-c2cn(CCN(C)C)c3cc(OC)ccc3c2=O)cc1", 98.1],
  ["CCOC(=O)CCn1cc(-c2ccc(OC)cc2)c(=O)c2ccc(OC)cc21", 98.5]
]}

// input: 3 compounds below; output: viability at 10 µM for each
1. CC(=O)Oc1ccc(-c2cn(C)c3c(OC(C)=O)ccc(OC(C)=O)c3c2=O)cc1
2. CCOC(=O)Cn1cc(-c2ccc(OC)cc2)c(=O)c2ccc(OC)cc21
3. CCN(CC)c1cc(OC)cc2c1c(=O)c(-c1ccc(OC)cc1)cn2C

1. 14.2
2. 91.2
3. 93.1

Value (viability at 10 µM, T24) for record `COc1ccc(-c2cn(C)c3cc(OC)ccc3c2=O)cc1` = 105

---

Assign melting point to each entry below.

Solved entries:
{"columns": ["Entry smiles", "melting point"],
 "data": [
  ["COc1ccc(-c2cnc3c(OC)ccc(OC)c3c2OCCO)cc1", "124 to 125 °C"],
  ["C=CCNc1cc(OC)cc2c1c(=O)c(-c1ccc(OC)cc1)cn2C", "154 to 155 °C"],
  ["COc1ccc(-c2cn(CCO)c3c(OC)ccc(OC)c3c2=O)cc1", "126 to 127 °C"]
]}

Below is a list of compounds. For each, state its recorded melting point.
1. COc1cc(OC)c2c(=O)c(-c3ccccc3)cn(C)c2c1
2. COc1ccc(-c2cn(CC#N)c3cc(OC)ccc3c2=O)cc1

["179 to 180 °C", "206 to 207 °C"]

---

Tested on: U-87MG
Experiment: MTT test, cytotoxic activity on non-clonogenic cell lines
Assay type: cell-based
Conditions: Homo sapiens, U-87 MG; 10^−5 M, 72 hours of incubation, control condition = 100%, mean value; read-out: mean optical density as percentage of control, U-87MG
For each record, write down the corresponding viability at 10 µM.
Give bare numbers, in %.

Worked examples, 8 molecules total:
{"columns": ["Molecule", "Assay target", "Value reported"],
 "data": [
  ["COc1ccc(-c2c[nH]c3ccccc3c2=O)cc1 [CRL8327]", "U-87MG", 89],
  ["COc1ccc(-c2cn(CCN(C)C)c3c(OC)ccc(OC)c3c2=O)cc1 [CRL8382]", "U-87MG", 59.2],
  ["CCOC(=O)Cn1cc(-c2ccc(OC)cc2)c(=O)c2c(OC)ccc(OC)c21 [CRL8381]", "U-87MG", 48.1],
  ["CCN(CC)C(=O)Cn1cc(-c2ccc(OC)cc2)c(=O)c2c(OC)cc(OC)cc21 [CRL8349]", "U-87MG", 98.3],
  ["COc1ccc(-c2c[nH]c3cc(OC)ccc3c2=O)cc1 [CRL8358]", "U-87MG", 80.1],
  ["COc1ccc2c(=O)c(-c3ccccc3)c[nH]c2c1 [CRL8359]", "U-87MG", 114],
  ["CCOC(=O)CCn1cc(-c2ccc(OC)cc2)c(=O)c2c(OC)cc(OC)cc21 [CRL8404]", "U-87MG", 91.5],
  ["COc1ccc(-c2cn(CCCN(C)C)c3cc(OC)cc(OC)c3c2=O)cc1 [CRL8357]", "U-87MG", 84.4]
]}

U-87MG assay, molecule COc1ccc(-c2c[nH]c3cc(OC)c(OC)cc3c2=O)cc1 [CRL8354] , recorded viability at 10 µM = 102
